Test: in vivo
Conditions: female, ICR CD-1, mouse, plasma, sc, 50 mg/kg, Plasma concentration MKM, s.c. 50 mg/kg, Time 1 (h), Mouse 3
Where a SMILES comes first, the peptide text is derived from it. Bridges are numbered along the chain shown (N, C = ends). [ ]: non-standard residue; d: D form. dOrn = NCCC[C@@H](N)C(=O)O
metric: level at 1 h (ng/mL)
The reply should be a number in ng/mL, with the unit left off.

Asked: Fill in: level at 1 h of C[C@@H](O)[C@@H]1NC(=O)[C@@H](CCCNC(=N)N)NC(=O)[C@@H](CCCNC(=N)N)NC(=O)[C@@H](CC(N)=O)NC(=O)[C@@H](NC(=O)[C@@H](Cc2ccccc2)NC(=O)[C@@H](CCCN)NC(=O)[C@H](N)CCCNC(=N)N)[C@@H](C)OC(=O)[C@H](Cc2c[nH]cn2)NC1=O [MKM-A, manikomycin] (H-[dR][dOrn][dF]T[dN][dR][dR]TH; ester 4-C) is ___
Given back: 6930

The measured values listed here are drawn from paper PMC13372681.
